# Tested on: HTB-26 breast adenocarcinoma cell line
# measurement-notes: MTT antiproliferative assay, HTB-26
# Assay type: cell-based, human
# settings: 72 h, 100–0.19 μM, read-out: IC50 (µM) ± SD HTB-26
Recorded measurements of IC50, one per entry
API: value field is a number in µM; no unit string.

Some entries whose results are on file:
C=CC1=CC(=O)C=C2CCC3=C(C=CC(=O)C3(C)OCC)C12OCC (stereo not shown) : 20.1
N.N.[Cl][Pt][Cl] [Cisplatin, cisplatin, reference compound] : 20.1
C=CC1=C(C)C(=O)C=C2CCC3=C(C=CC(=O)C3(C)OCC)C21OCC (stereo not shown) [Compound 2b] : 45.8

Below: the item to evaluate.
C=CC1=C(C)C(=O)C=C2CCC3=C(C=CC(=O)C3(C)OCC)C21OCC (stereo not shown) [Compound 2a] on HTB-26 breast adenocarcinoma cell line gives IC50 = 94.3

Hey, just so you know, these numbers are from paper PMC7765930.
